- Tested on: embryonated chicken SPF eggs
- CONDITION PARAMETERS: in vivo
VALUE KIND: CC50

Some entries whose results are on file:
Cc1ccc(C(=O)CC(=Cc2c(C)nn(-c3ccccc3)c2Cl)C(=O)NCc2ccccc2)cc1: 300 > µl/ egg
Cc1ccc(C(=O)CC(=Cc2c(C)nn(-c3ccccc3)c2Cl)C(=O)NCC(C)C)cc1: 500 > µl/ egg
Cc1ccc(C(=O)CC(=Cc2c(C)nn(-c3ccccc3)c2Cl)C(=O)NNc2ccccc2)cc1: 500 > µl/ egg
Cc1ccc(C(=O)CC(=Cc2c(C)nn(-c3ccccc3)c2Cl)C(=O)NN)cc1: 500 > µl/ egg
Cc1ccc(C2=CC(=Cc3c(C)nn(-c4ccccc4)c3Cl)C(=O)O2)cc1: 300 > µl/ egg

Return CC50 measured with embryonated chicken SPF eggs given this compound: Cc1ccc(C2=CC(=Cc3c(C)nn(-c4ccccc4)c3Cl)C(=O)N2N=Cc2ccc(Cl)cc2)cc1
500 > µl/ egg

Return CC50 measured with embryonated chicken SPF eggs given this compound: Cc1ccc(C(=O)CC(=Cc2c(C)nn(-c3ccccc3)c2Cl)C2=NCCN2)cc1
500 > µl/ egg

Return CC50 measured with embryonated chicken SPF eggs given this compound: CC(=O)N(C(C)=O)N1C(=O)C(=Cc2c(C)nn(-c3ccccc3)c2Cl)C=C1c1ccc(C)cc1
500 > µl/ egg

###

- System: Staphylococcus aureus
- PROTOCOL DESCRIPTION: Agar/disk diffusion inhibition zone, Staphylococcus aureus
- Format: cell-based
- CONDITION PARAMETERS: diffusion method
Parameter Inhibition diameter Staph (Gram + ve): see the listing below.
Write the value in mm as a bare number.

So what's the measured Inhibition diameter Staph (Gram + ve) for this one? Cc1ccc(C2=CC(=Cc3c(C)nn(-c4ccccc4)c3Cl)C(=O)N2N=Cc2ccc(Cl)cc2)cc1
6

So what's the measured Inhibition diameter Staph (Gram + ve) for this one? Cc1ccc(C(=O)CC(=Cc2c(C)nn(-c3ccccc3)c2Cl)C(=O)NCC(C)C)cc1
22

So what's the measured Inhibition diameter Staph (Gram + ve) for this one? Cc1ccc(C(=O)CC(=Cc2c(C)nn(-c3ccccc3)c2Cl)C(=O)NN)cc1
8

So what's the measured Inhibition diameter Staph (Gram + ve) for this one? Cc1ccc(C(=O)CC(=Cc2c(C)nn(-c3ccccc3)c2Cl)C(=O)NNc2ccccc2)cc1
7

So what's the measured Inhibition diameter Staph (Gram + ve) for this one? Cc1ccc(C2=CC(=Cc3c(C)nn(-c4ccccc4)c3Cl)C(=O)N2NC(=O)c2ccccc2)cc1
7

So what's the measured Inhibition diameter Staph (Gram + ve) for this one? Cc1ccc(C(=O)CC(=Cc2c(C)nn(-c3ccccc3)c2Cl)C(=O)NCc2ccccc2)cc1
24

So what's the measured Inhibition diameter Staph (Gram + ve) for this one? Cc1ccc(C(=O)CC(=Cc2c(C)nn(-c3ccccc3)c2Cl)C2=NCCN2)cc1
25

So what's the measured Inhibition diameter Staph (Gram + ve) for this one? Cc1ccc(-c2cc(Cc3c(C)nn(-c4ccccc4)c3Cl)c(=O)[nH]n2)cc1
2

So what's the measured Inhibition diameter Staph (Gram + ve) for this one? Cc1ccc(C(=O)CC(=Cc2c(C)nn(-c3ccccc3)c2Cl)C(=O)NN=Cc2cn(-c3ccccc3)nc2-c2ccccc2)cc1
22

So what's the measured Inhibition diameter Staph (Gram + ve) for this one? Cc1ccc(C2=CC(=Cc3c(C)nn(-c4ccccc4)c3Cl)C(=O)N2)cc1
25

So what's the measured Inhibition diameter Staph (Gram + ve) for this one? CC(=O)N(C(C)=O)N1C(=O)C(=Cc2c(C)nn(-c3ccccc3)c2Cl)C=C1c1ccc(C)cc1
14

So what's the measured Inhibition diameter Staph (Gram + ve) for this one? Cc1ccc(C2=CC(=Cc3c(C)nn(-c4ccccc4)c3Cl)C(=O)O2)cc1
23

Data origin, for the record: paper PMC10239048
